Molecular target: human DP2 receptor (Homo sapiens)
Sequence (Q9Y5Y4 whole entry): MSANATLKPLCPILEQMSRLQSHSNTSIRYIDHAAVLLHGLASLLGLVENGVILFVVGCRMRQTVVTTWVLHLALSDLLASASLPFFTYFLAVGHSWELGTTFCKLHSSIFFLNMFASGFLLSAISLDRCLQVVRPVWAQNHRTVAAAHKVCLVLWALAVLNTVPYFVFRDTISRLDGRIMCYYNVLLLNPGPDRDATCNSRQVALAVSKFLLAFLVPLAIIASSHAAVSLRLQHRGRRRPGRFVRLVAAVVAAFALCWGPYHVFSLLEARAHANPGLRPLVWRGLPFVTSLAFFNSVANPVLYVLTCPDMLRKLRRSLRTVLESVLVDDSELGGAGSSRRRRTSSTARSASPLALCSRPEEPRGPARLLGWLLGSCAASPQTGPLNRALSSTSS
Experiment: Prostaglandin D2 binding inhibition assay (scintillation proximity assay, 3H PGD2, membranes of transfected CHO cells)
Conditions: SPA, 5.5 nM 3H PGD2, CHO-K1 FLP-In human DP2 membranes; upper limit determinable 30 μM; read-out: IC50 ranges for inhibition of PGD2 binding to human DP2
MEASURED_ENDPOINT: IC50

Examples from the recorded data:
CCS(=O)(=O)N1CCC(n2c(=O)n(CC(=O)O)c3cccnc32)CC1 :: 10 to 30 µM
O=C(O)Cn1c(=O)n(C2CCN(S(=O)(=O)c3cccc4cccnc34)CC2)c2ncc(F)cc21 :: 1 to 10 µM
CC(C)CS(=O)(=O)N1CCC(n2c(=O)n(CC(=O)O)c3cccnc32)CC1 :: 1 to 10 µM
Cc1cc(S(=O)(=O)N2CCC(n3c(=O)n(CC(=O)O)c4cccnc43)CC2)ccc1F :: 1 to 10 µM
CC(C)Oc1ccc(S(=O)(=O)N2CCC(n3c(=O)n(CC(=O)O)c4cc(F)cnc43)CC2)cc1 :: 10 to 30 µM
O=C(O)Cn1c(=O)n(C2CCN(S(=O)(=O)Cc3ccc(F)cc3)CC2)c2ncccc21 :: < 1 µM
CCCS(=O)(=O)N1CCC(n2c(=O)n(CC(=O)O)c3cccnc32)CC1 :: 1 to 10 µM

Could you now consider this next compound?
input: IC50 for O=C(O)Cn1c(=O)n(C2CCC(NS(=O)(=O)c3ccc(Cl)cc3Cl)CC2)c2ncccc21 (centres unmarked) ?
output: 1 to 10 µM

====

Biological target: human DP2 receptor (Homo sapiens)
Test: Prostaglandin D2 binding inhibition assay (scintillation proximity assay, 3H PGD2, membranes of transfected CHO cells)
Details: SPA, 5.5 nM 3H PGD2, CHO-K1 FLP-In human DP2 membranes; upper limit determinable 30 μM; read-out: IC50 ranges for inhibition of PGD2 binding to human DP2
pIC50: −log10 of the molar value.
MEASURED_ENDPOINT: pIC50

Cc1cccc(S(=O)(=O)N2CCC(n3c(=O)n(CC(=O)O)c4cccnc43)CC2)c1 :: 5.00 to 6.00

input: Can you share its pIC50? I mean this compound: O=C(O)Cn1c(=O)n(C2CCN(S(=O)(=O)c3ccc(F)cc3Cl)CC2)c2cnccc21
output: < 4.52

input: Try this compound too: O=C(O)Cn1c(=O)n(C2CCN(S(=O)(=O)c3ccc(F)cc3Cl)CC2)c2cccnc21
output: < 4.52

input: Now this one: O=C(O)Cn1c(=O)n(C2CCN(S(=O)(=O)c3cccnc3)CC2)c2ncccc21
output: 4.52 to 5.00

====

Molecular target: UniProt Q9Y5Y4
Test: Prostaglandin D2 binding inhibition assay (scintillation proximity assay, 3H PGD2, membranes of transfected CHO cells)
Conditions: SPA, 5.5 nM 3H PGD2, CHO-K1 FLP-In human DP2 membranes; upper limit determinable 30 μM; read-out: IC50 ranges for inhibition of PGD2 binding to human DP2
pIC50: −log10 of the molar value.
MEASURED_ENDPOINT: pIC50

O=C(O)Cn1c(=O)n(C2CCN(S(=O)(=O)c3cccc4cccnc34)CC2)c2ncccc21 :: > 6.00
Cc1cccc(CS(=O)(=O)N2CCC(n3c(=O)n(CC(=O)O)c4cccnc43)CC2)c1 :: 5.00 to 6.00

Turning now to a further molecule:
input: What value of pIC50 has been recorded for this entry: COc1ccc(S(=O)(=O)N2CCC(n3c(=O)n(CC(=O)O)c4cccnc43)CC2)cc1OC
output: 4.52 to 5.00

Each recorded value in this set is attributed to patent US20110190336A1.
